Where do these numbers come from? They come from ChEMBL document CHEMBL3885881.

LEUKOCYTE COUNT overview
species: Rattus norvegicus; assay: DrugMatrix - Regimen: Daily Repeat; type: toxicity, organism-based, Sprague-Dawley; parameters: regimen Daily Repeat, gender Male, age 6-8 weeks; settings: in vivo, po, 0 mg/kg, 120 h, tissue Blood, route oral GAVAGE, dose level Control, time 5 day, […]
Give the number; x10E3/uL is assumed, so skip it.

- COMPOUND: "CC(=O)[C@H]1CC[C@H]2[C@@H]3CCC4=CC(=O)CC[C@]4(C)[C@H]3CC[C@]12C"
  LEUKOCYTE COUNT (x10E3/uL): 9.93
- COMPOUND: "CSc1ccc2c(c1)N(CCC1CCCCN1C)c1ccccc1S2 (stereo not given)"
  LEUKOCYTE COUNT (x10E3/uL): 16.52
- COMPOUND: "O=[N+]([O-])c1cc([As](=O)(O)O)ccc1O"
  LEUKOCYTE COUNT (x10E3/uL): 8.69

Challenge: Given c1ccc2[nH]c(-c3cscn3)nc2c1 , state its recorded LEUKOCYTE COUNT.
Response given: 12.2

Challenge: Given COC1=CC(=O)C[C@@H](C)[C@]12Oc1c(Cl)c(OC)cc(OC)c1C2=O , state its recorded LEUKOCYTE COUNT.
Response given: 18.73

Challenge: Given C=CCN , state its recorded LEUKOCYTE COUNT.
Response given: 10.96

Challenge: Given Oc1c(Cl)cc(Cl)cc1Sc1cc(Cl)cc(Cl)c1O , state its recorded LEUKOCYTE COUNT.
Response given: 10.77

Challenge: Given COCc1c(C(C)C)nc(C(C)C)c(/C=C/[C@@H](O)C[C@@H](O)CC(=O)O)c1-c1ccc(F)cc1 , state its recorded LEUKOCYTE COUNT.
Response given: 14.02

Challenge: Given Cn1cnc([N+](=O)[O-])c1Sc1ncnc2nc[nH]c12 , state its recorded LEUKOCYTE COUNT.
Response given: 4.87

Challenge: Given COc1ccc2c(c1)c(CC(=O)OCC(=O)O)c(C)n2C(=O)c1ccc(Cl)cc1 , state its recorded LEUKOCYTE COUNT.
Response given: 17.02
